All figures here come from paper PMC11138481.

target: GAS41 YEATS domain (residues 11–150) (human, UniProt O95619 11-150); assay: ITC
Sequence (O95619 11-150): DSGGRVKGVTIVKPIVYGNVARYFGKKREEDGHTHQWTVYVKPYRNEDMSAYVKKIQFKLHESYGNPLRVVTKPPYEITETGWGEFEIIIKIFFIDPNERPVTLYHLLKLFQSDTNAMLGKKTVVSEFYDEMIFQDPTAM
Ends that are not written are not given here. * marks the point of attachment. Crotonyl(E) = C/C=C/C(=O)*
# Kd values compiled below
The reply should contain only the number, in µM.

{"Binder": "ATKAARK(Crotonyl(E))SAPATG [Synthesized H3 K27cr (a.a. 21-33) peptide]", "Units label": "µM", "Kd": 22.9}

Now take the following binder into account.
Task item: Recorded Kd of ATKAARK(Ac)SAPATG [Synthesized H3 K27ac (a.a. 21-33) peptide] , please.
Reply: 51.5
